- Tested on: HCT15 (human colon adenocarcinoma) cell line
- assayInfo: In vitro cytotoxicity against HCT15 cell line
- Type: cell-based
- settings: from curves of complex concentration vs percentage viability
attributeMeasured: pIC50
# pIC50: negative log10 of molar concentration; output just the value

QUERY: Look up and report measured pIC50 (HCT15 (human colon adenocarcinoma) cell line) for the following molecule: N.N.[Cl][Pt][Cl] [Cisplatin, cisplatin]
RESULT: 4.53

====

- Test system: MCF7 (human breast cancer) cell line
- assayInfo: In vitro cytotoxicity against MCF7 cell line
- Assay type: cell-based
- settings: from curves of complex concentration vs percentage viability
attributeMeasured: pIC50
API: returns pIC50 as number; meaning -log10 of concentration in mol/L.

QUERY: Specify reported pIC50 for the compound shown: N.N.[Cl][Pt][Cl] [Cisplatin, cisplatin]
RESULT: 4.65
